# assay-overview: qHTS of pediatric cancer cell lines to identify multiple opportunities for drug repurposing: Primary screen for SJ-GBM2 cells (AID 1347091);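 also: plate controls were DMSO neutral control for no effect and bortezomib for full effect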
# conditions-used: SJ-GBM2 viability, CellTiter-Glo luminescence, 48 h; series mostly up to 46 µM
Records with an inconclusive call do not appear. Active and inactive are the calls of the source. Calls follow the shape of the dose curve; as a rule, active = well fitted cell-killing curve with a large enough effect; inconclusive = small, poorly fitted or top-dose-only effect; inactive = no such curve, though single readings can be large or run the other way.
reported-metric: activity change, negative = cytotoxic

Worked cases, activity change, negative = cytotoxic given:
INSERT INTO measurements (molecule, reported_metric, result) VALUES
  ('O=C(Cn1ccnc1[N+](=O)[O-])NCc1ccccc1', 'activity change, negative = cytotoxic', 'inactive'),
  ('CC1CC(OC(=O)c2ccccc2O)CC(C)(C)C1 (centres undefined)', 'activity change, negative = cytotoxic', 'inactive'),
  ('CC(C)=CCC[C@@](C)(O)[C@H]1CC=C(C)CC1', 'activity change, negative = cytotoxic', 'inactive'),
  ('CC[C@]12CCCN3CCc4c(n(c5ccccc45)[C@@](O)(C(=O)OC)C1)[C@@H]32', 'activity change, negative = cytotoxic', 'inactive'),
  ('NCc1ccc(S(N)(=O)=O)cc1', 'activity change, negative = cytotoxic', 'inactive'),
  ('O[C@@H]1CO[C@H]2[C@@H]1OC[C@@H]2O', 'activity change, negative = cytotoxic', 'inactive'),
  ('CC(C)CCCC(C)CCCC(C)CCCCC(C)CCCC(C)CCCC(C)C (centres undefined)', 'activity change, negative = cytotoxic', 'inactive'),
  ('C[C@@H](c1ncncc1F)C(O)(Cn1cncn1)c1ccc(F)cc1F (some centres undefined)', 'activity change, negative = cytotoxic', 'inactive'),
  ('Cc1cccc(Nc2ccccc2C(=O)O)c1C', 'activity change, negative = cytotoxic', 'inactive'),
  ('CN(C/C=C/C#CC(C)(C)C)Cc1cccc2ccccc12', 'activity change, negative = cytotoxic', 'inactive');

Name the recorded activity change, negative = cytotoxic for Cc1ccc(C(C)C)c(O)c1 . inactive

Name the recorded activity change, negative = cytotoxic for CN1C[C@@H]2C[C@H]1CN2c1cc2c(cc1F)c(=O)c(C(=O)O)cn2C1CC1 . inactive

###

# assay-overview: Drug repurposing screens with cells derived from glioblastoma tumor samples (AID 1345199); also: nearly all actives have a fitted effect of over 40% in size; also: potency is read from the fitted curve at half-maximal effect
# conditions-used: GBM patient neurospheres viability, ATP luminescence, 48 h; tumour line A
# Protocol: CD133+ cells were isolated from GBM patient biopsies and cultured as neurospheres. Neurospheres from four patients were used to screen the NCATS pharmaceutical collection (NPC) library of approved drugs and bioactive compounds. […] The neurospheres were incubated with drugs for 48 hours in 1536-well format, then assayed with an ATP content cell viability assay. […]
Results filed as inconclusive are left out. Calls of active or inactive are those of the source. Calls follow the shape of the dose curve; as a rule, active = well fitted inhibition curve with a large enough effect; inconclusive = small, poorly fitted or top-dose-only effect; inactive = flat fitted curve, though single readings scatter.
reported-metric: Potency

INSERT INTO assay_data (compound, result) VALUES
  ('Nc1ccc(C(=O)Oc2ccccc2)c(O)c1', '11.2 µM (active)'),
  ('CN1CCCN=C1COC(=O)C(O)(c1ccccc1)C1CCCCC1 (stereo not given)', '11.2 µM (active)'),
  ('COC(=O)c1ccccc1C(=O)c1ccc(OCCN2CCCCC2)cc1', '7.08 µM (active)'),
  ('CCOc1ccccc1O[C@H](c1ccccc1)[C@H]1CNCCO1', '12.6 µM (active)'),
  ('CCN(CC)CC1CCCCN1CC(=O)N1c2ccccc2C(=O)Nc2cccnc21 (stereo not given)', '20 µM (active)'),
  ('CCCCOC(=O)c1ccc(N)cc1', '11.2 µM (active)');

Moving on to the next compound.
Name the recorded Potency for CC[C@]12CCCN3CCc4c(n(c5ccccc45)[C@@](O)(C(=O)OC)C1)[C@@H]32 . 17.8 µM (active)

###

# Test system: CP238
# assay-overview: qHTS profiling for inhibitors of Plasmodium falciparum proliferation (AID 504749); also: nearly all actives have a fitted effect of over 60% in size
# conditions-used: P. falciparum in erythrocytes, SYBR Green DNA, 72 h; series mostly up to 28.7 µM
Inconclusive results are not listed. Calls of active or inactive are those of the source. Calls come from the whole dose curve; as a rule, active = well fitted inhibition curve with a large enough effect; inconclusive = small, poorly fitted or top-dose-only effect; inactive = flat fitted curve, though single readings scatter.
Choose the fitting class; nothing outside active, inactive is accepted.

Look over these answered cases.
INSERT INTO assay_data (molecule, group) VALUES
  ('CCN(CC)CC1CCCCN1CC(=O)N1c2ccccc2C(=O)Nc2cccnc21 (centres undefined)', 'inactive'),
  ('O=C1CC[C@@H](C(=O)O)N1', 'inactive'),
  ('CC(=O)N[C@@H](Cc1ccc(O)cc1)C(=O)O', 'inactive'),
  ('O=C(O)CCCCC1CCSS1 (centres undefined)', 'inactive'),
  ('CCCOC(=O)c1ccc(N)cc1', 'inactive');

Tell me the recorded outcome of this test for COc1ccccc1OC(=O)Oc1ccccc1OC . inactive

Tell me the recorded outcome of this test for CN(C(=O)c1c(O)c2ccccc2n(C)c1=O)c1ccccc1 . inactive

Tell me the recorded outcome of this test for COC(=O)c1ccccc1C(=O)c1ccc(OCCN2CCCCC2)cc1 . inactive

Tell me the recorded outcome of this test for CN1C(C)(C)CCCC1(C)C . inactive

Tell me the recorded outcome of this test for CC1CCc2cc(F)cc3c(=O)c(C(=O)O)cn1c23 (centres undefined) . inactive

Tell me the recorded outcome of this test for Cc1cccc(Nc2ccccc2C(=O)O)c1C . inactive

Tell me the recorded outcome of this test for CCCCCCCCCCCCCCCCCCO . inactive

Tell me the recorded outcome of this test for Cc1ccsc1C(=CCCN1CCC[C@@H](C(=O)O)C1)c1sccc1C . inactive

Tell me the recorded outcome of this test for CC(=O)Nc1ccc(OCCOCCOc2ccc(NC(C)=O)cc2)cc1 . inactive

Tell me the recorded outcome of this test for O=C1c2ccccc2S(=O)(=O)N1CCCCN1CCN(c2ncccn2)CC1 . inactive

Tell me the recorded outcome of this test for Cc1ccc(C(C)C)c(O)c1 . inactive

Tell me the recorded outcome of this test for CC(=O)Nc1ccccc1 . inactive

Tell me the recorded outcome of this test for Cc1cc(NC(=O)C2=C(O)c3ccccc3S(=O)(=O)N2C)no1 . inactive

Tell me the recorded outcome of this test for CCCCCCCCCCOc1cc2c(=O)c(C(=O)OCC)c[nH]c2cc1OCC . active

###

Here the recorded activity, negative = cell killing is given for each entry.
# assay-overview: Drug repurposing screens with cells derived from glioblastoma tumor samples (AID 1345199); also: nearly all actives have a fitted effect of over 40% in size; as to activity, negative = cell killing: % is scaled to controls: 0 for no effect and ±100 for the full control effect
# conditions-used: GBM patient neurospheres viability, ATP luminescence, 48 h; at 21.2 µM (top of the series); tumour line B
Inconclusive results are not listed.
Quick note: give the figure in %, leave out the unit.

Worked cases, activity, negative = cell killing given:
INSERT INTO measurements (compound, readout_number) VALUES
  ('NC(N)=NS(=O)(=O)c1ccc(N)cc1', -6.02),
  ('NS(=O)(=O)c1cc2c(cc1C(F)(F)F)NCNS2(=O)=O', 8.4),
  ('CCOC(=O)OC(C)OC(=O)[C@@H]1N2C(=O)[C@@H](NC(=O)[C@H](N)c3ccccc3)[C@H]2SC1(C)C (stereo not given in full)', -8.91),
  ('OC(CCN1CCCC1)(c1ccccc1)C1CCCCC1 (stereo not given)', -6.65),
  ('C[n+]1ccccc1/C=N/O', -15),
  ('COCC(=O)Nc1c(I)c(C(=O)NCC(O)CO)c(I)c(C(=O)N(C)CC(O)CO)c1I (stereo not given)', -2.18),
  ('CCc1cccc(CC)c1NC(=O)CN(CC(=O)O)CC(=O)O', -2.25),
  ('CCCNC(C)C(=O)Nc1c(C)csc1C(=O)OC (stereo not given)', -2.83),
  ('O=C(O)COC(=O)Cc1ccccc1Nc1c(Cl)cccc1Cl', -12.4),
  ('CC(=O)N(CC(O)CN(C(C)=O)c1c(I)c(C(=O)NCC(O)CO)c(I)c(C(=O)NCC(O)CO)c1I)c1c(I)c(C(=O)NCC(O)CO)c(I)c(C(=O)NCC(O)CO)c1I (stereo not given)', -1.18);

Moving on to the next compound.
Name the recorded activity, negative = cell killing for CCC(C)(CN(C)C)OC(=O)c1ccccc1 (stereo not given) . -2.39

###

# Test system: GB4
# assay-overview: qHTS profiling for inhibitors of Plasmodium falciparum proliferation (AID 504749); also: nearly all actives have a fitted effect of over 60% in size
# conditions-used: P. falciparum in erythrocytes, SYBR Green DNA, 72 h; series mostly up to 28.7 µM
Records with an inconclusive call do not appear. Activity calls are given as the source filed them. Calls come from the whole dose curve; as a rule, active = well fitted inhibition curve with a large enough effect; inconclusive = small, poorly fitted or top-dose-only effect; inactive = flat fitted curve, though single readings scatter.
Choose the fitting class; nothing outside true (1) for active, false (0) for inactive is accepted.

INSERT INTO assay_data (compound, group) VALUES
  ('O=C(Cn1ccnc1[N+](=O)[O-])NCCO', 'false (0)'),
  ('COc1cc(O)cc(O)c1', 'false (0)'),
  ('Cc1cccc(C(=O)O)c1O', 'false (0)'),
  ('OC[C@@H](O)[C@@H](O)[C@H](O)[C@H](O)CO', 'false (0)'),
  ('CC(=O)Oc1cccc(O)c1', 'false (0)');

Now for another entry.
Tell me the recorded outcome of this test for COc1ccc(O)cc1 . false (0)

###

# Test system: HaCat
# assay-overview: Cytotoxic Profiling of Annotated Libraries Using Quantitative High-Throughput Screening (AID 1296008); also: % is scaled to controls: 0 for no effect and ±100 for the full control effect; nearly all actives have a fitted effect of over 60% in size
# conditions-used: Five cell lines viability, CellTiter-Glo ATP luminescence, 48-72 h; hits give low values
Results filed as inconclusive are left out. Activity calls are given as the source filed them. Calls come from the whole dose curve; as a rule, active = well fitted inhibition curve with a large enough effect; inconclusive = small, poorly fitted or top-dose-only effect; inactive = flat fitted curve, though single readings scatter.
Here the recorded max response is given for each entry.

INSERT INTO results (molecule, system_under_test, result) VALUES
  ('NS(=O)(=O)c1cc2c(cc1C(F)(F)F)NCNS2(=O)=O', 'HaCat', '2.79% (inactive)'),
  ('Cn1c([N+](=O)[O-])cnc1COC(N)=O', 'HaCat', '-19.4% (inactive)'),
  ('CC(C(=O)O)c1ccc2c(c1)Cc1cccnc1O2 (centres undefined)', 'HaCat', '-5.6% (inactive)'),
  ('CCCOC(=O)c1ccc(N)cc1', 'HaCat', '-1.1% (inactive)'),
  ('Cc1[nH]c(C)c(Cl)c(=O)c1Cl', 'HaCat', '-2.26% (inactive)');

Name the recorded max response for Cc1ccsc1/C=C/C1=NCCCN1C . 3.54% (inactive)

Name the recorded max response for CC(=O)NCc1c(I)c(NC(C)=O)c(I)c(C(=O)O)c1I . -5.93% (inactive)
